The reported numbers originate from paper PMC8263619.

- system-name: MvitOBP3 protein
- measurement-description: Fluorescence competitive binding assay with 1-NPN probe
- experimental-conditions: recombinant MvitOBP3, 1-NPN fluorescent probe; read-out: IC50, ligand concentration displacing 50% of the fluorescence intensity of the MvitOBP/N-phenyl-1-naphthylamine complex
Measured IC50 by item

Record excerpt, results attached:
CC(C=O)Cc1ccccc1 (centres unmarked) ... 10.6 µM
O=Cc1ccccc1 ... 43.3 µM

*Q* Supply measured IC50 of CC(=O)c1ccc(C)cc1C in your reply.
*A* 21.4 µM

*Q* Item CC(=O)c1ccc(O)c(C)c1 [4-hydroxy-3-methylacetophenone] : provide IC50
*A* 22.7 µM

*Q* State, in one line, measured IC50 of CCCCCCCCOC(=O)CCC
*A* 21.2 µM

###

- system-name: MvitOBP3 protein
- measurement-description: Fluorescence competitive binding assay with 1-NPN probe
- experimental-conditions: recombinant MvitOBP3, 1-NPN fluorescent probe; read-out: IC50, ligand concentration displacing 50% of the fluorescence intensity of the MvitOBP/N-phenyl-1-naphthylamine complex
Readings of IC50 for the listed molecules
Just the number in µM, nothing appended.

Please review the following examples before continuing.
C=C(C)C1CC=C(C)CC1 (stereo not drawn) ... 9.4
CCc1ccc(C(C)=O)cc1 ... 24.1
CCc1cccc(CC)c1 ... 33.6
CCCCOC(=O)CCC ... 11.1
CCC(=O)c1ccc(CC)cc1 ... 26.7

*Q* Supply IC50 value. Item: CC(=O)c1ccccc1
*A* 41.8

*Q* Tell me IC50 reported for O=Cc1ccccc1O [2-hydroxybenzaldehyde]
*A* 24.2

*Q* Return the recorded IC50 value; entry: CCc1ccc(C=O)cc1
*A* 22.8

*Q* Supply IC50 value. Item: CC(=O)c1ccc(C(C)=O)cc1
*A* 28.4

*Q* Given the molecule Oc1cccc2[nH]ccc12 , write its reported IC50.
*A* 12.6

*Q* State its IC50: Cc1cc(C)cc(C(C)(C)C)c1
*A* 21.8

*Q* For CCc1ccc(CC)cc1 , write its IC50.
*A* 29.3

###

- system-name: MvitOBP3 protein
- measurement-description: Fluorescence competitive binding assay with 1-NPN probe
- experimental-conditions: recombinant MvitOBP3, 1-NPN fluorescent probe; read-out: Ki, dissociation constant
reported-metric: Ki (µM)
Could you give me the number in µM? Just the number is fine.

CC(=O)c1ccc(C(C)=O)cc1 ... 25.1
CCc1ccc(C=O)cc1 ... 20.1
O=Cc1ccccc1 ... 38.3
CC(=O)c1ccccc1 ... 37
Cc1cc(C)cc(C(C)(C)C)c1 ... 19.3
CCC(=O)c1ccc(CC)cc1 ... 23.6
CCCCCCCCOC(=O)CCC ... 18.7
CCc1ccc(C(C)=O)cc1 ... 21.3

*Q* Quickly give me recorded Ki for CC(=O)c1ccc(C)cc1C
*A* 18.9

###

Here the recorded Ki is given for each entry.
- system-name: MvitOBP3 protein
- measurement-description: Fluorescence competitive binding assay with 1-NPN probe
- experimental-conditions: recombinant MvitOBP3, 1-NPN fluorescent probe; read-out: Ki, dissociation constant
Please append the unit to your numeric answer.

# example entries with known answers
O=Cc1ccccc1O [2-hydroxybenzaldehyde] ... 21.4 µM
Oc1cccc2[nH]ccc12 [1H-indol-4-ol] ... 11.2 µM
CC(C=O)Cc1ccccc1 (centres unmarked) [2-methyl-3-phenylpropanal] ... 9.38 µM

*Q* Quote Ki reported for CCc1cccc(CC)c1 [1,3-diethylbenzene] please.
*A* 29.7 µM

*Q* Specify measured Ki for CCCCOC(=O)CCC [Butanoic acid butyl ester] .
*A* 9.79 µM

*Q* Given the compound CC(=O)c1ccc(O)c(C)c1 [4-hydroxy-3-methylacetophenone] , write its reported Ki.
*A* 20.1 µM

*Q* Give Ki for C=C(C)C1CC=C(C)CC1 (centres unmarked) [Limonene]
*A* 8.31 µM

*Q* Return the recorded Ki value; entry: CCc1ccc(CC)cc1 [1,4-diethylbenzene]
*A* 25.9 µM
